molecular target: Quinolinate phosphoribosyltransferase (HsQPRT) NΔ9 mutant (Homo sapiens, UniProt Q15274, NΔ9); construct: NΔ9, N-terminal truncated (helix α1 removed), dimer; test: ITC
Sequence (Q15274 10-297, stated change not applied): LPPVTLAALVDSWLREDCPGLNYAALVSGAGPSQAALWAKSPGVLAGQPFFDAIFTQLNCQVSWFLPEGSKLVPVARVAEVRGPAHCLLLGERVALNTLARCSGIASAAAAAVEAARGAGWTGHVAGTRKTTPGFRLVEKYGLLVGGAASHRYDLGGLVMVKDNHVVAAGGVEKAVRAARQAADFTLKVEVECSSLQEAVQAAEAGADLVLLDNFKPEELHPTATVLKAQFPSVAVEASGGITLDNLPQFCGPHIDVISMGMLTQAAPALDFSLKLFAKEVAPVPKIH
quantity name: pKd
Reminder that pKd means the negative base-10 logarithm of the concentration expressed in mol/L.

Asked: # input molecule: `O=C(O)c1cccnc1C(=O)O` ; wanted: its pKd
Given back: 3.40
